Tested on: pigweed
Test: Test B pre/postemergence pigweed
Assay type: in vivo, Amaranthus retroflexus
Details: Rate 250 g/ha, Postemergence; scale of 0 to 10 where 0 is no effect and 10 is complete control
Each entry below carries its recorded Plant response rating, Redroot pigweed.
Simply state the number, no unit and no words.

// known answers, use as guide
{"compound": "CC(C)N(C(=O)n1oc(=O)n(Cc2nnsc2Cl)c1=O)c1ccc(F)cc1F [Compound 320]", "Plant response rating, Redroot pigweed": 6}
{"compound": "CC(C)N(C(=O)n1oc(=O)n(C2CCCC2)c1=O)c1ccc(F)cc1 [Compound 271]", "Plant response rating, Redroot pigweed": 7}
{"compound": "CCOC(=O)C=C(Cn1c(=O)on(C(=O)N(c2ccc(Cl)cc2)C(C)C)c1=O)OCC [Compound 549]", "Plant response rating, Redroot pigweed": 0}

Task: pigweed / Plant response rating, Redroot pigweed / COCCOCn1c(=O)on(C(=O)N(c2ccc(Cl)cc2)C(C)C)c1=O [Compound 535] : value?
Output: 0

Task: pigweed / Plant response rating, Redroot pigweed / CCC=CCn1c(=O)on(C(=O)N(c2ccc(F)cc2F)C(C)C)c1=O [Compound 523] : value?
Output: 3

Task: pigweed / Plant response rating, Redroot pigweed / CC(C)N(C(=O)n1oc(=O)n(Cc2ccccc2-c2ccccc2)c1=O)c1ccc(F)cc1 [Compound 313] : value?
Output: 2

Task: pigweed / Plant response rating, Redroot pigweed / CC1Cc2cccc(-n3c(=O)on(C(=O)N(c4ccc(F)cc4)C(C)C)c3=O)c2O1 (stereo not shown) [Compound 281] : value?
Output: 5

###

Tested on: sugar beet
Assay: Test B pre/postemergence sugar beet
Type: in vivo, Beta vulgaris
Details: Preemergence, Rate 250 g/ha; scale of 0 to 10 where 0 is no effect and 10 is complete control
recorded-endpoint: Sugarbeets plant response rating

// known answers, use as guide
{"compound": "CC(C)N(C(=O)n1oc(=O)n(CCC2OCCO2)c1=O)c1ccc(F)cc1", "recorded-endpoint": "Sugarbeets plant response rating", "result": 4}
{"compound": "CC(C)N(C(=O)n1oc(=O)n(C)c1=O)c1ccc(F)cc1F", "recorded-endpoint": "Sugarbeets plant response rating", "result": 10}
{"compound": "COc1cc(C)cc(C)c1-n1c(=O)on(C(=O)N(c2ccc(F)cc2)C(C)C)c1=O", "recorded-endpoint": "Sugarbeets plant response rating", "result": 0}
{"compound": "CC1CC1n1c(=O)on(C(=O)N(c2ccc(F)cc2)C(C)C)c1=O (centres unmarked)", "recorded-endpoint": "Sugarbeets plant response rating", "result": 6}
{"compound": "CC(C)N(C(=O)n1oc(=O)n(CC2CCCO2)c1=O)c1ccc(F)cc1 (centres unmarked)", "recorded-endpoint": "Sugarbeets plant response rating", "result": 1}
{"compound": "CCN(C(=O)n1oc(=O)n(C2CC2)c1=O)C1CCCCC1", "recorded-endpoint": "Sugarbeets plant response rating", "result": 0}
{"compound": "CC1Cc2cccc(-n3c(=O)on(C(=O)N(c4ccc(F)cc4)C(C)C)c3=O)c2O1 (centres unmarked)", "recorded-endpoint": "Sugarbeets plant response rating", "result": 0}
{"compound": "Cc1ccccc1-n1c(=O)on(C(=O)N(c2ccc(Oc3ccccc3)cc2)C(C)C)c1=O", "recorded-endpoint": "Sugarbeets plant response rating", "result": 0}

Task: Given the entry "Cc1nc(C)c(Cn2c(=O)on(C(=O)N(c3ccc(F)cc3F)C(C)C)c2=O)s1" , report its measured Sugarbeets plant response rating.
Output: 4

Task: Given the entry "CC(C)N(C(=O)n1oc(=O)n(C2CCC2)c1=O)c1ccc(F)cc1F" , report its measured Sugarbeets plant response rating.
Output: 6

Task: Given the entry "CC(C)N(C(=O)n1oc(=O)n(N2CCOCC2)c1=O)c1ccc(F)cc1" , report its measured Sugarbeets plant response rating.
Output: 2

###

Test system: pigweed
Assay: Test B pre/postemergence pigweed
Format: in vivo, Amaranthus retroflexus
Settings: Preemergence, Rate 62 g/ha; scale of 0 to 10 where 0 is no effect and 10 is complete control
Each entry below carries its recorded Redroot pigweed plant response rating.

// known answers, use as guide
{"molecule": "Cc1nsc(C)c1-n1c(=O)on(C(=O)N(c2ccc(F)cc2F)C(C)C)c1=O", "result": 0}
{"molecule": "CC(C)N(C(=O)n1oc(=O)n(Cc2nnsc2Cl)c1=O)c1ccc(F)cc1F", "result": 0}
{"molecule": "Cc1ccccc1-n1c(=O)on(C(=O)N(c2ccc(Oc3ccccc3)cc2)C(C)C)c1=O", "result": 0}
{"molecule": "Cc1ccccc1-n1c(=O)on(C(=O)N(c2cccc(F)c2F)C(C)C)c1=O", "result": 0}
{"molecule": "CC(C)N(C(=O)n1oc(=O)n(Cc2nnc(Cl)s2)c1=O)c1ccccc1", "result": 0}

Next molecule, Redroot pigweed plant response rating to be filled in.
Task: Given the entry "[2H]C([2H])([2H])n1c(=O)on(C(=O)N(c2ccc(F)cc2)C(C)C)c1=O" , report its measured Redroot pigweed plant response rating.
Output: 8

###

System: blackgrass
Assay: Test B pre/postemergence blackgrass
Assay type: in vivo, Alopecurus myosuroides
Conditions: Preemergence, Rate 62 g/ha; scale of 0 to 10 where 0 is no effect and 10 is complete control
Method: […] At the same time, these crop and weed species were also treated with postemergence applications of test chemicals formulated in the same manner. […] Treated plants and controls were maintained in a greenhouse for twelve to sixteen days, after which all species were compared to controls and visually evaluated. […]
Each entry below carries its recorded Plant response rating, Blackgrass.
Simply state the number, no unit and no words.

{"compound": "CC(C)N(C(=O)n1oc(=O)n(CCCF)c1=O)c1ccc(F)cc1F", "measured-target": "blackgrass", "Plant response rating, Blackgrass": 9}

Task: Given the entry "CC[Si](C)(C)Cn1c(=O)on(C(=O)N(c2ccc(Cl)cc2)C(C)C)c1=O" , report its measured Plant response rating, Blackgrass.
Output: 0

Task: Given the entry "CC(C)N(C(=O)n1oc(=O)n(CCC#N)c1=O)c1ccc(Cl)cc1" , report its measured Plant response rating, Blackgrass.
Output: 0

Task: Given the entry "COCn1c(=O)on(C(=O)N(c2ccc(F)cc2F)C(C)C)c1=O" , report its measured Plant response rating, Blackgrass.
Output: 10

###

Test system: rice
Experiment: Test B flood test rice
Assay type: in vivo, Oryza sativa
Settings: Rate 250 g/ha; Pre-emergence; flood-test species; scale 0 to 10, 0 is no effect, 10 is complete control
Each entry below carries its recorded Rice plant response rating.
Simply state the number, no unit and no words.

// known answers, use as guide
{"molecule": "CC1CC1n1c(=O)on(C(=O)N(c2ccccc2)C(C)C)c1=O (centres unmarked)", "recorded-endpoint": "Rice plant response rating", "quantitative-readout": 0}
{"molecule": "CC(C)N(C(=O)n1oc(=O)n(CC#N)c1=O)c1ccc(F)cc1", "recorded-endpoint": "Rice plant response rating", "quantitative-readout": 0}
{"molecule": "CC(C)N(C(=O)n1oc(=O)n(CCCCF)c1=O)c1ccc(F)cc1", "recorded-endpoint": "Rice plant response rating", "quantitative-readout": 1}
{"molecule": "C=CCCCn1c(=O)on(C(=O)N(c2ccc(F)cc2)C(C)C)c1=O", "recorded-endpoint": "Rice plant response rating", "quantitative-readout": 0}

Next molecule, Rice plant response rating to be filled in.
Task: Given the entry CC(C)N(C(=O)n1oc(=O)n(N2C(C)CCCC2C)c1=O)c1ccc(F)cc1F (centres unmarked) , report its measured Rice plant response rating.
Output: 0

###

System: surinam grass
Assay: Test B pre/postemergence surinam grass
Type: in vivo, Brachiaria decumbens
Conditions: Preemergence, Rate 500 g/ha; scale 0 to 10 (0 no effect, 10 complete control)
recorded-endpoint: B. signalgrass plant response rating
Simply state the number, no unit and no words.

{"compound": "CCN(Cc1ccccc1)C(=O)n1oc(=O)n(C(C)C)c1=O [Compound 166]", "recorded-endpoint": "B. signalgrass plant response rating", "quantitative-readout": 4}

Task: Given the entry Cc1ccccc1-n1c(=O)on(C(=O)N(c2cccc(F)c2F)C(C)C)c1=O [Compound 171] , report its measured B. signalgrass plant response rating.
Output: 5

Task: Given the entry Cc1nsc(C)c1-n1c(=O)on(C(=O)N(c2ccc(F)cc2F)C(C)C)c1=O [Compound 158] , report its measured B. signalgrass plant response rating.
Output: 0

Task: Given the entry CC(C)N(C(=O)n1oc(=O)n(C(C)C)c1=O)c1ccccc1 [Compound 113] , report its measured B. signalgrass plant response rating.
Output: 10

Task: Given the entry Cc1ccccc1-n1c(=O)on(C(=O)N(c2c(F)cccc2F)C(C)C)c1=O [Compound 176] , report its measured B. signalgrass plant response rating.
Output: 0

###

System: pigweed
Assay: Test B pre/postemergence pigweed
Assay type: in vivo, Amaranthus retroflexus
Conditions: Preemergence, Rate 250 g/ha; scale 0 to 10, 0 is no effect, 10 is complete control
Each entry below carries its recorded Redroot pigweed plant response rating.
Simply state the number, no unit and no words.

{"compound": "CC(C)N(C(=O)n1oc(=O)n(CC2(C)COC2)c1=O)c1ccccc1", "Redroot pigweed plant response rating": 2}
{"compound": "Cc1ccccc1-n1c(=O)on(C(=O)N(c2cccc(F)c2F)C(C)C)c1=O", "Redroot pigweed plant response rating": 5}
{"compound": "CCc1nc(C)c(C(C)n2c(=O)on(C(=O)N(c3ccc(F)cc3)C(C)C)c2=O)s1 (stereo not shown)", "Redroot pigweed plant response rating": 0}

Next compound, Redroot pigweed plant response rating to be filled in.
Task: Given the entry "CC(C)N(C(=O)n1oc(=O)n(CO)c1=O)c1ccc(Cl)cc1" , report its measured Redroot pigweed plant response rating.
Output: 0
